TGT: recombinant E. coli BioA (Escherichia coli)
Sequence (P12995 whole entry): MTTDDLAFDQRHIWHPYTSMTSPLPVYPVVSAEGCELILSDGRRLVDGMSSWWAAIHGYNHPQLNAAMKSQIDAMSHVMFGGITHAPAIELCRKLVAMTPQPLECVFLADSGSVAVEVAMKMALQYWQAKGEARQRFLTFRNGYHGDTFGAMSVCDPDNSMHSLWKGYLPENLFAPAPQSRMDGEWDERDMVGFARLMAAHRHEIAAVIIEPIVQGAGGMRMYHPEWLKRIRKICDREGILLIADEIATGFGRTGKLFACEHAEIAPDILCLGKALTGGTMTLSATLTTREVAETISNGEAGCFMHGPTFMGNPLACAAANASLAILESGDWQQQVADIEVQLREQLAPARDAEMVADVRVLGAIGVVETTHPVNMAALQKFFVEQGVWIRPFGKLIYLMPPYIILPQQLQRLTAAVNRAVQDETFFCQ
TEST PROTOCOL: BioA inhibition through a feeding assay of a bioA auxotroph
Assay type: biochemical
PROTOCOL CONDITIONS: 10 μM; relative to DMSO control
OBSERVABLE: inhibition at 10 µM (%)
Give bare numbers, in %.

MOLECULE	inhibition at 10 µM, %
NNC(=O)Cc1ccccc1[N+](=O)[O-] [Compound 2j]	29
CCC(=O)CSc1ccccc1[N+](=O)[O-] [Compound 1k]	0
CCC(=O)NN [Compound 2d]	8

Could you now consider this next molecule?
Input NNC(=O)CSc1ccncc1 [Compound 2i, 2-(pyridin-4-ylthio)acetohydrazide] . Output inhibition at 10 µM: 77
